Test system: NCI-H460 lung
Test: NCI-60 one-dose screen, 48 h (100 = growth as untreated, 0 = no growth, -100 = all killed)
Settings: 10 µM unless noted
About 83,000 compounds went through this panel and 20% of them were active in at least one assay; those are over-represented in the sample as a whole.
Answer not satisfied if growth is under 70%, and satisfied if it is 70% or more.

MOLECULE | QUALITATIVE_LABEL
c1ccc(-c2nc(N3CCOCC3)c3c4c(sc3n2)CCCCC4)nc1 | not satisfied
Nc1cccc(NC(=O)C(=O)Nc2cccc(N)c2)c1 | satisfied
CCCCCCCCCCCCN1CCCC(C)C1 (stereo unspecified) | satisfied
O=C(CCCN1CCOCC1)Nc1ccc(Cn2nnc3c2C(=O)c2nnn(Cc4ccc(NC(=O)CCCN5CCOCC5)cc4)c2C3=O)cc1 | not satisfied
Cn1c2c(Cl)c(Cl)ccc2c2ccn3c(=O)c4ccccc4nc3c21 | satisfied
O=C(CN1CCN(c2cc3c(cc2F)c(=O)c(C(=O)O)cn3C2CC2)CC1)Nc1cc(=O)[nH]c(=O)[nH]1 | satisfied
COc1cc(C(=O)/C=C/c2c(C)n([O-])c3ccc(C)cc3[n+]2=O)cc(OC)c1OC | satisfied
Cc1ccc2cnc(N)c(C#Cc3cncc(C(=O)Nc4ccc(CN5CCN(C)CC5)c(C(F)(F)F)c4)c3)c2c1 | not satisfied
CS(=O)CCCCCN=C=S (stereo unspecified) | not satisfied
COc1ccc2nc3cc(Cl)ccc3c(NCCNCC(O)CO)c2c1 (stereo unspecified) | not satisfied
COc1cccc(-n2cc(-c3nc(Nc4cc(C)[nH]n4)c4ccccc4n3)nn2)c1 | not satisfied
CCN(CC)CCCNc1cc(OC)cc2nc3cc(Cl)ccc3nc12 | not satisfied
Cc1ccc2c(c1)n([O-])c1cc(Cl)ccc1[n+]2=O | satisfied
Cc1cc(OCc2ccc(C(F)(F)F)cc2)c2c(c1)C(=O)C=C(NCCN1CCCC1)C2=O | not satisfied
COc1cc(C2CC(=O)c3c(C)nn(-c4nc5ccccc5[nH]4)c3C2)cc(OC)c1OC (stereo unspecified) | satisfied
COc1cc(C2CC(=O)Nc3c2cnn3Cc2ccco2)cc2c1OCCO2 (stereo unspecified) | satisfied
CCOC(=O)C12CCCC1=CC(=O)CC2 (stereo unspecified) | satisfied
O=C(O)C(O)C(O)C(=O)O.[NH-]C1CCCCC1[NH-].[Pt+2] (stereo unspecified) | satisfied
C(=N\Nc1nnn(Cc2ccccc2)n1)/c1ccccc1 | not satisfied

* * *

Listing of entries alongside the reported growth.
System: U251 CNS
Assay: NCI-60 one-dose screen, 48 h (100 = growth as untreated, 0 = no growth, -100 = all killed)
Conditions: 10 µM unless noted
This is part of a sample that, as a whole, favours compounds with a hit. Of some 83,000 tested, about 20% had one in any assay.

MOLECULE | VALUE_UNIT | growth
Cc1cc(-c2nc3ccccc3s2)ccc1NC(=O)COc1ccc(Cl)cc1 | % | 94.1
C[C@]12C[C@@H](c3ccoc3)OC(=O)[C@@H]1CC[C@]1(C)[C@@H]2CC[C@@H](O)[C@]1(C)O | % | 66.5
COCCCN=C(N)c1ccc(NC(=O)c2ccc(C(=O)Nc3ccc(C(N)=NCCCOC)cc3)cc2)cc1 | % | 99.1
C=C1CCC2C3(C)COC(C)(C)OC3CCC2(C)C1C/C=C1/C(=O)OCC1OC(C)=O (stereo not given) | % | 36.7
COC(=O)[C@@H]1CC[C@]2(C)[C@H](CC[C@@H]3O[C@@]32C)[C@@]1(C)CC(=O)c1ccoc1 | % | 91.8
N#Cc1c2c(nc3n[nH]c(N)c13)CCCC2 | % | 99.3
CC1=C(NCCN2CCCC2)C(=O)c2c(OCc3ccc(F)c(Cl)c3)cccc2C1=O | % | 57.8
ClC1=C2NC=NC2n2c(nnc2-c2ccc(Cl)cc2)N1 (stereo not given) | % | 89.6
Cc1ccc(/C=C2\Oc3cc(OCC(=O)c4ccc(Cl)cc4)ccc3C2=O)cc1 | % | 97.5
COc1cc(OC)c(/C=C/S(=O)(=O)Cc2ccc(OC)c(N)n2)c(OC)c1 | % | 8.02
CCOC(=S)SCc1ccc(Cl)cc1 | % | 90.5
O=C1/C(=C/c2ccc(F)cc2)CN(C(=O)CCN2CCC(=NO)CC2)C/C1=C\c1ccc(F)cc1 | % | -65.1
Nc1c(C(=O)Nc2cccc3c2OCCO3)sc2nc3c(cc12)C(=O)CCC3 | % | 33
C=C1CC2(OC1=O)C(=O)N(CCCCCCCCCCCCN1C(=O)C3(CC(=C)C(=O)O3)c3ccccc31)c1ccccc12 (stereo not given) | % | 74.3
C=C(CN1CCN(c2cccc(C(F)(F)F)n2)CC1)c1ccc(C(=O)Nc2ccccc2N)cc1 | % | 23.1
COc1cc(OC)c(/C=C/C(=O)c2c(OC)cc(OC)cc2OC)c(OC)c1 | % | 14.5
CCC(c1ccc(O)cc1)C(CC)c1ccc(O)c(F)c1 (stereo not given) | % | 89.8
CC1=C(NCCN2CCCC2)C(=O)c2c(OCc3ccc(C(F)(F)F)cc3)cccc2C1=O | % | 69.9
CN1CCN(Cc2ccc(NC(=O)c3[nH]ncc3Nc3ccnc4ccsc34)cc2)CC1 | % | 29.2
CCOC(=O)c1c2c(n3ccc(NC(=O)CCN4CCCCC4)cc13)C(=O)c1ncccc1C2=O | % | -86.3
